relative viability by entry:
- Tested on: H3255
- Protocol notes: relative viability (nuclei count vs DMSO), 5 days (fraction); higher = more cells survive
- Experimental setup: first compound 0.1581 µM
Hey, just send me the number, nothing else.

>  <Molecule>
CC1(C)CCC(c2ccc(Cl)cc2)=C(CN2CCN(c3ccc(C(=O)NS(=O)(=O)c4ccc(N[C@H](CCN5CCOCC5)CSc5ccccc5)c(S(=O)(=O)C(F)(F)F)c4)cc3)CC2)C1 [Navitoclax] + COc1cc2c(Oc3ccc(NC(=O)C4(C(=O)Nc5ccc(F)cc5)CC4)cc3F)ccnc2cc1OCCCN1CCOCC1 [Foretinib] (partner 0.25 µM)

>  <relative viability>
0.861

$$$$
>  <Molecule>
CC1(C)CCC(c2ccc(Cl)cc2)=C(CN2CCN(c3ccc(C(=O)NS(=O)(=O)c4ccc(N[C@H](CCN5CCOCC5)CSc5ccccc5)c(S(=O)(=O)C(F)(F)F)c4)cc3)CC2)C1 [Navitoclax] + C[C@@H](Oc1cc(-c2cnn(C3CCNCC3)c2)cnc1N)c1c(Cl)ccc(F)c1Cl [Crizotinib] (partner 1 µM)

>  <relative viability>
0.891

$$$$

Which relative viability is listed for CC1(C)CCC(c2ccc(Cl)cc2)=C(CN2CCN(c3ccc(C(=O)NS(=O)(=O)c4ccc(N[C@H](CCN5CCOCC5)CSc5ccccc5)c(S(=O)(=O)C(F)(F)F)c4)cc3)CC2)C1 [Navitoclax] + Cc1cc(Nc2cc(N3CCN(C)CC3)nc(Sc3ccc(NC(=O)C4CC4)cc3)n2)n[nH]1 [Tozasertib] (partner 0.1 µM) ? 0.585

So what does the record say about relative viability for CC1(C)CCC(c2ccc(Cl)cc2)=C(CN2CCN(c3ccc(C(=O)NS(=O)(=O)c4ccc(N[C@H](CCN5CCOCC5)CSc5ccccc5)c(S(=O)(=O)C(F)(F)F)c4)cc3)CC2)C1 [Navitoclax] + CCNC(=O)c1noc(-c2cc(C(C)C)c(O)cc2O)c1-c1ccc(CN2CCOCC2)cc1 [Luminespib] (partner 0.01 µM) ? 0.869

----------
- Test system: LK-2
- Protocol notes: relative viability (nuclei count vs DMSO), 5 days (fraction); higher = more cells survive
- Experimental setup: first compound 0.01 µM
Recorded relative viability by entry

>  <Molecule>
NC(=O)Nc1cc(-c2cccc(F)c2)sc1C(=O)N[C@H]1CCCNC1 [AZD7762] + C[C@@H](Oc1cc(-c2cnn(C3CCNCC3)c2)cnc1N)c1c(Cl)ccc(F)c1Cl [Crizotinib] (partner 1 µM)

>  <Assay metric>
relative viability

>  <Obs value>
0.203

$$$$

Pending molecule:
# input molecule: NC(=O)Nc1cc(-c2cccc(F)c2)sc1C(=O)N[C@H]1CCCNC1 [AZD7762] + COc1cc2c(Oc3ccc(NC(=O)C4(C(=O)Nc5ccc(F)cc5)CC4)cc3F)ccnc2cc1OCCCN1CCOCC1 [Foretinib] (partner 0.25 µM) ; wanted: its relative viability 1.38

----------
Measured relative viability, listed per entry.
- System: HCC-44
- Protocol notes: relative viability (nuclei count vs DMSO), 5 days (fraction); higher = more cells survive
- Experimental setup: first compound 1.265 µM
Hey, just send me the number, nothing else.

Field: example entries. Status: answers known.
>  <Compound>
O=C(O)c1ccc(-c2c[nH]c3ncc(-c4ccccc4)cc23)cc1C1CCCC1 + CCNC(=O)c1noc(-c2cc(C(C)C)c(O)cc2O)c1-c1ccc(CN2CCOCC2)cc1 [Luminespib] (partner 0.01 µM)

>  <Obs value>
0.448

$$$$
>  <Compound>
O=C(O)c1ccc(-c2c[nH]c3ncc(-c4ccccc4)cc23)cc1C1CCCC1 + CC(=O)Nc1cccc(-n2c(=O)n(C3CC3)c(=O)c3c(Nc4ccc(I)cc4F)n(C)c(=O)c(C)c32)c1 [Trametinib] (partner 0.02 µM)

>  <Obs value>
1.01

$$$$
>  <Compound>
O=C(O)c1ccc(-c2c[nH]c3ncc(-c4ccccc4)cc23)cc1C1CCCC1 + Nc1nc2[nH]cc(CCc3ccc(C(=O)N[C@@H](CCC(=O)O)C(=O)O)cc3)c2c(=O)[nH]1 [Pemetrexed] (partner 0.2 µM)

>  <Obs value>
0.598

$$$$
>  <Compound>
O=C(O)c1ccc(-c2c[nH]c3ncc(-c4ccccc4)cc23)cc1C1CCCC1 + C[C@]1(O)C[C@@H](c2nc(-c3ccc4ccc(-c5ccccc5)nc4c3)c3c(N)nccn32)C1 [Linsitinib] (partner 1 µM)

>  <Obs value>
0.57

$$$$
>  <Compound>
O=C(O)c1ccc(-c2c[nH]c3ncc(-c4ccccc4)cc23)cc1C1CCCC1 + CC1(C)CCC(c2ccc(Cl)cc2)=C(CN2CCN(c3ccc(C(=O)NS(=O)(=O)c4ccc(N[C@H](CCN5CCOCC5)CSc5ccccc5)c(S(=O)(=O)C(F)(F)F)c4)cc3)CC2)C1 [Navitoclax] (partner 0.5 µM)

>  <Obs value>
0.914

$$$$

As a next step, examine the compound that follows.
Param item = O=C(O)c1ccc(-c2c[nH]c3ncc(-c4ccccc4)cc23)cc1C1CCCC1 + O=C(c1cc(Cc2n[nH]c(=O)c3ccccc23)ccc1F)N1CCN(C(=O)C2CC2)CC1 [Olaparib] (partner 8 µM) ; retrieve measured relative viability. 0.95

----------
- Test system: NCI-H2009
- Protocol notes: relative viability (nuclei count vs DMSO), 5 days (fraction); higher = more cells survive
- Experimental setup: first compound 1.265 µM
Classify: true (1) when relative viability is strictly less than 0.6; false (0) when relative viability is not.

Sample answers from the record:
>  <Compound>
O=C(O)c1ccc(-c2c[nH]c3ncc(-c4ccccc4)cc23)cc1C1CCCC1 + CS(=O)(=O)CCNCc1ccc(-c2ccc3ncnc(Nc4ccc(OCc5cccc(F)c5)c(Cl)c4)c3c2)o1 [Lapatinib] (partner 2 µM)

>  <Discrete label>
false (0)

$$$$
>  <Compound>
O=C(O)c1ccc(-c2c[nH]c3ncc(-c4ccccc4)cc23)cc1C1CCCC1 + CCNC(=O)c1noc(-c2cc(C(C)C)c(O)cc2O)c1-c1ccc(CN2CCOCC2)cc1 [Luminespib] (partner 0.01 µM)

>  <Discrete label>
false (0)

$$$$
>  <Compound>
O=C(O)c1ccc(-c2c[nH]c3ncc(-c4ccccc4)cc23)cc1C1CCCC1 + O=C(CCCCCCC(=O)Nc1ccccc1)NO [Vorinostat] (partner 1 µM)

>  <Discrete label>
false (0)

$$$$

Item O=C(O)c1ccc(-c2c[nH]c3ncc(-c4ccccc4)cc23)cc1C1CCCC1 + COc1cc2c(Oc3ccc(NC(=O)C4(C(=O)Nc5ccc(F)cc5)CC4)cc3F)ccnc2cc1OCCCN1CCOCC1 [Foretinib] (partner 0.25 µM) : relative viability beneath 0.6, strictly? false (0)

Strictly below 0.6: is that where relative viability of O=C(O)c1ccc(-c2c[nH]c3ncc(-c4ccccc4)cc23)cc1C1CCCC1 + CC(=O)c1c(C)c2cnc(Nc3ccc(N4CCNCC4)cn3)nc2n(C2CCCC2)c1=O [Palbociclib] (partner 0.5 µM) sits? true (1)

----------
Measured relative viability by item
- Tested on: BEN
- Protocol notes: relative viability (nuclei count vs DMSO), 5 days (fraction); higher = more cells survive
- Experimental setup: first compound 0.5 µM
Form rule: numeric answer, no unit written next to it.

Below, each entry is followed by its recorded relative viability result.
>  <Compound>
CC1(C)CCC(c2ccc(Cl)cc2)=C(CN2CCN(c3ccc(C(=O)NS(=O)(=O)c4ccc(N[C@H](CCN5CCOCC5)CSc5ccccc5)c(S(=O)(=O)C(F)(F)F)c4)cc3)CC2)C1 [Navitoclax] + Cc1nc(NC(=O)N2CCC[C@H]2C(N)=O)sc1-c1ccnc(C(C)(C)C(F)(F)F)c1 [Alpelisib] (partner 2 µM)

>  <Test target>
BEN

>  <relative viability>
0.831

$$$$
>  <Compound>
CC1(C)CCC(c2ccc(Cl)cc2)=C(CN2CCN(c3ccc(C(=O)NS(=O)(=O)c4ccc(N[C@H](CCN5CCOCC5)CSc5ccccc5)c(S(=O)(=O)C(F)(F)F)c4)cc3)CC2)C1 [Navitoclax] + COc1cccc2cc(-c3nc([C@H]4CC[C@H](C(=O)O)CC4)n4ncnc(N)c34)[nH]c12 [OSI-027] (partner 0.5 µM)

>  <Test target>
BEN

>  <relative viability>
0.281

$$$$
>  <Compound>
CC1(C)CCC(c2ccc(Cl)cc2)=C(CN2CCN(c3ccc(C(=O)NS(=O)(=O)c4ccc(N[C@H](CCN5CCOCC5)CSc5ccccc5)c(S(=O)(=O)C(F)(F)F)c4)cc3)CC2)C1 [Navitoclax] + NC(=O)Nc1cc(-c2cccc(F)c2)sc1C(=O)N[C@H]1CCCNC1 [AZD7762] (partner 0.2 µM)

>  <Test target>
BEN

>  <relative viability>
0.377

$$$$
>  <Compound>
CC1(C)CCC(c2ccc(Cl)cc2)=C(CN2CCN(c3ccc(C(=O)NS(=O)(=O)c4ccc(N[C@H](CCN5CCOCC5)CSc5ccccc5)c(S(=O)(=O)C(F)(F)F)c4)cc3)CC2)C1 [Navitoclax] + CC(C)C[C@H](NC(=O)[C@H](Cc1ccccc1)NC(=O)c1cnccn1)B(O)O [Bortezomib] (partner 0.002 µM)

>  <Test target>
BEN

>  <relative viability>
0.339

$$$$

Param item = CC1(C)CCC(c2ccc(Cl)cc2)=C(CN2CCN(c3ccc(C(=O)NS(=O)(=O)c4ccc(N[C@H](CCN5CCOCC5)CSc5ccccc5)c(S(=O)(=O)C(F)(F)F)c4)cc3)CC2)C1 [Navitoclax] + O=C(c1cc(Cc2n[nH]c(=O)c3ccccc23)ccc1F)N1CCN(C(=O)C2CC2)CC1 [Olaparib] (partner 8 µM) ; retrieve measured relative viability. 0.595
